Read-out: CD69, CD69 (gene 969)
Assay: BSK_SAg_CD69: BioMAP Diversity Plus: SAg Assay for CD69 Biomarker Activity (AID 2283089)
Details: primary human HUVEC with PBMC; actives raise or lower the signal
Calls of active or inactive are those of the source. Rule for the calls: active = hit-call score of the fitted dose curve at least 0.9, where 1 is the maximum; inactive = score below 0.9.
Respond only with the outcome that fits, drawn from T (active), F (inactive)

Below, 5 molecules whose answers are already recorded.
[[record]]
molecule = "Nc1nc(N)nc(-c2ccccc2)n1"
group = "F"

[[record]]
molecule = "CC(C)[N+](C)(CCOC(=O)C1c2ccccc2Oc2ccccc21)C(C)C"
group = "F"

[[record]]
molecule = "C=CC(=O)OCC(C)OCC(C)OCC(C)OC(=O)C=C (stereo unspecified)"
group = "T"

[[record]]
molecule = "C[N+](C)(C)CCCNS(=O)(=O)C(F)(F)C(F)(F)C(F)(F)C(F)(F)C(F)(F)C(F)(F)C(F)(F)C(F)(F)F"
group = "F"

[[record]]
molecule = "Cc1ccc([N+](=O)[O-])cc1N"
group = "F"


# outcome recorded in this test, key = CC=C(C)C=CC=C(C)C
T

Can you handle CCCCCCCCCCCC(=O)N(C)CC(=O)O next?
F

Can you handle CC(C)C(=O)OCCc1ccccc1 next?
F

Can you handle C1CNCCN1 next?
F

Can you handle Oc1ccccc1Cc1ccccc1O next?
F

Can you handle c1ccc2c(c1)[nH]c1ccccc12 next?
F

Can you handle C=CC(=O)OCCCCCCCC(C)C next?
F

Can you handle CCN1CN(CC)CN(CC)C1 next?
F

----------
Experiment: CCTE_Deisenroth_AIME_384WELL_CTox_Active: Cytotoxicity Assessment (CTOX) in CCTE's 384-well Estrogen Receptor Transactivation Assay with AIME metabolic competence (metabolism positive), Deisenroth Lab (AID 2284037);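 note: chemicals first conditioned 2 h by alginate-bound induced rat liver S9 before cells; activity means signal loss indicating cell death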
Inconclusive results are not listed. Activity calls are given as the source filed them. How the source made its calls: active means hit-call score of the fitted dose curve at least 0.9, where 1 is the maximum; inconclusive means response in the unintended direction; inactive means score below 0.9.
Respond only with the outcome that fits, drawn from active, inactive

[[record]]
compound = "C/C=C/C=C/CCCCCCCO"
group = "inactive"

[[record]]
compound = "CCCCNS(=O)(=O)c1ccccc1"
group = "inactive"

[[record]]
compound = "O=C(O)CCC(=O)O"
group = "inactive"

[[record]]
compound = "CCCCCCCCCCCCCCCCCCOS(=O)(=O)O"
group = "inactive"

[[record]]
compound = "CCCCCCCCCC[N+](C)(CCCCCCCCCC)CCC[Si](OC)(OC)OC"
group = "active"


# outcome recorded in this test, key = Nc1ccc(C(=O)O)cc1
inactive

Can you handle O=C(Oc1ccccc1)c1ccccc1O next?
inactive

Can you handle CC(CCC(=O)O)(c1ccc(O)cc1)c1ccc(O)cc1 next?
inactive

Can you handle O=C(O)C1CCC(C(=O)O)CC1 (centres undefined) next?
inactive

Can you handle CC1=NN(c2ccc(S(=O)(=O)O)cc2)C(=O)C1N=Nc1ccccc1 (centres undefined) next?
active

Can you handle C=C[C@@]1(C)CC(=O)[C@]2(O)[C@@]3(C)[C@@H](O)CCC(C)(C)[C@@H]3[C@H](O)[C@H](OC(C)=O)[C@@]2(C)O1 next?
active

Can you handle CCCCCCOc1ccc(N)cc1 next?
inactive

Can you handle O=C(O)c1cc(O)c2ccccc2c1O next?
active

Can you handle C=C(C)C1CC=C(C)CC1 (centres undefined) next?
inactive

----------
Biological target: Estrogen receptor (Homo sapiens)
Test: OT_ER_ERaERa_0480: Odyssey Thera (OT) 8-hour HEK293T Protein-Complementation Assay for Estrogen Receptor-alpha/-alpha Homodimer (AID 2283351);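 note: rise in fluorescence from reassembled reporter fragments on ERα LBD homodimer in nucleus or whole cell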
Inconclusive results are not listed. Calls of active or inactive are those of the source. Rule for the calls: active = hit-call score of the fitted dose curve at least 0.9, where 1 is the maximum; inconclusive = response in the unintended direction; inactive = score below 0.9.
Respond only with the outcome that fits, drawn from yes (1) = active, no (0) = inactive

[[record]]
compound = "Cc1c(C(=O)c2c[nH]n(C)c2=O)ccc(S(C)(=O)=O)c1C1=NOCC1"
group = "no (0)"

[[record]]
compound = "Cc1ccc([N+](=O)[O-])cc1N"
group = "no (0)"

[[record]]
compound = "O=S(=O)(O)c1ccc(N=Nc2c(O)ccc3ccccc23)cc1"
group = "no (0)"

[[record]]
compound = "O=C(O)/C=C/c1ccccc1"
group = "no (0)"

[[record]]
compound = "c1ccc(Nc2cccc3ccccc23)cc1"
group = "yes (1)"

[[record]]
compound = "CC(=O)c1ccccc1O"
group = "no (0)"

[[record]]
compound = "CCCC(CC)c1ccccc1 (centres undefined)"
group = "no (0)"

[[record]]
compound = "CCCCc1ccc(Cl)cc1"
group = "no (0)"


# outcome recorded in this test, key = C/C=C/C=C/CCCCCCCO
no (0)

Can you handle CCc1occc(=O)c1O next?
no (0)

Can you handle CCOC(=O)c1ccc(C)cc1 next?
no (0)
